The origin of these recorded values is PubChem BioAssay (NCI).

Listed below: TGI values for each entry.
Test system: OVCAR-3 ovarian
Test details: NCI tumour cell line growth inhibition, 48 h
Result type: TGI (µM)

COc1cc2c(cc1OCCCCn1c(-c3cccs3)nc3ccccc31)N=C[C@@H]1CCCN1C2=O; 4.29
CCOC(=O)/C(=C/c1ccccc1Br)P(=O)(OCC)OCC; 5.46
C=C1C(=O)c2cc3c(cc2C(c2cc(OC)c(OC)c(OC)c2)[C@@H]1C(=O)O)OCO3 (some centres undefined); 72.8
COc1ccc2[nH]c3c4c(cc(-c5ccccc5)c3c2c1)C(=O)N(c1ccccc1)C4=O; 55.2
CCCNCC(O)CNc1ccc(NCC(O)CNCCC)c2c1C(=O)c1ccccc1C2=O (centres undefined); 13.7
CCc1nc2ccccc2c(=O)n1/N=C(\N=Nc1ccc(Cl)cc1)c1ccccc1; 57.1
C=C(CCC/C(C)=C/C=C/[C@H](C)CCCc1ccoc1)C[C@@H]1OC(=O)[C@H](C)[C@@H]1O; 17.6
C(=N\NC1=NCCN1)/c1cccc2cc3ccncc3nc12; 17.1
NCCCNc1nc2ccc(Cl)cc2c2c(=O)c3cc(F)ccc3sc12; 4.03
Cc1[nH]c2nc3c(ncn3COCCO)c(=O)n2c1C(c1ccccc1)(c1ccccc1)c1ccccc1; 15.4
FC(F)(F)c1ccc(-c2ncc(-c3ccc(C(F)(F)F)cc3)c(NCc3cc(C(F)(F)F)cc(C(F)(F)F)c3)n2)cc1; 16
CCOc1cc(/C=C/C(=O)C(C(=O)/C=C/c2ccc(OC(=O)CNc3nnc(C)s3)c(OCC)c2)C(=O)CNc2nnc(C)s2)ccc1OC(=O)CNc1nnc(C)s1; 4.85
Brc1ccc(Nc2nc3ccccc3nc2Nc2ccc(Br)cc2)cc1; 1.54
CC(=O)OCC1OC([Se-])C(OC(C)=O)C(OC(C)=O)C1OC(C)=O.N#CCC[PH+](CCC#N)CCC#N.[Au+] (centres undefined); 49.7

###

Listed below: TGI values for each entry.
System: IGROV1 ovarian
Test details: NCI tumour cell line growth inhibition, 48 h
Result type: TGI

Cc1cc(C)nc(NCCC(O)(P(=O)(O)O)P(=O)(O)O)n1; > 100 µM
CCCCCCCCCC/C=C/C=O; > 100 µM
Cc1ccc(SCC(CF)OC(C)n2cnc3c(Cl)nc(N)nc32)cc1 (stereo unspecified); > 100 µM
O=C(O)c1ccc(C(=O)O)c(C(=O)O)c1.[NH-]C1CCCCC1[NH-].[Pt+2]; 44.6 µM
Cc1cccc(N=C/C=C(\Cl)c2ccc3ccccc3c2)c1; > 60.3 µM
COc1ccc(NS(=O)c2c(C)cc(C)cc2C)cc1 (stereo unspecified); > 100 µM
O=C1CCN2C(=N1)Sc1ccccc12; > 100 µM
C1=C(c2ccccc2)O[C@H](COCc2ccccc2)C(OCc2ccccc2)[C@@H]1OCc1ccccc1 (stereo partly specified); > 10 µM
O=C(CCc1ccc(O)c(O)c1)NCCc1cc(O)c(O)c(O)c1; > 100 µM
OCC1OC(n2cnc3c(SCc4ccccc4)ncnc32)C(O)C1O (stereo unspecified); > 100 µM
COC(=O)[C@H](COC(C)(C)C)NC(=O)N[C@H](C)c1ccccc1; > 100 µM

###

System: NCI-H522 lung
Test details: NCI tumour cell line growth inhibition, 48 h
# label = TRUE if TGI >= 30 µM else FALSE

Cc1cc(C)nc(NCCC(O)(P(=O)(O)O)P(=O)(O)O)n1; TRUE
C=C(CCC/C(C)=C/C=C/[C@H](C)CCCc1ccoc1)C[C@@H]1OC(=O)[C@H](C)[C@@H]1O; FALSE
Nc1nc(Br)nc2ncn(C3CC(O)C(CO)O3)c12 (stereo not given); TRUE
O=P(CCOc1ccccc1OCCP(=O)(c1ccccc1)c1ccc2c(c1)OCCOCCOCCOCCO2)(c1ccccc1)c1ccc2c(c1)OCCOCCOCCOCCO2 (stereo not given); TRUE
CCCOc1ccc(/C=N/Nc2cc(C)nc3ccc(Cl)cc23)cc1; FALSE
O=C1/C(=C/c2ccc(Cl)cc2)N=C(c2ccccc2)N1/N=C/c1ccccc1O; TRUE
O=C1c2cccnc2C(=O)c2c1c(C(=O)OCCc1ccccn1)c1ccccn21; FALSE
O=C(c1ccccc1)C(Nc1ccc2ccccc2c1)c1ccccc1 (stereo not given); TRUE
CCCCCCCc1cscc1-c1cscc1Br; TRUE
O=C1C=CC(=O)c2cc(Sc3ccccc3)c(=O)c(Sc3ccccc3)cc21; FALSE
